subject-of-test: BCRP (Homo sapiens (Human), UniProt Q9UNQ0)
Sequence (Q9UNQ0 whole entry): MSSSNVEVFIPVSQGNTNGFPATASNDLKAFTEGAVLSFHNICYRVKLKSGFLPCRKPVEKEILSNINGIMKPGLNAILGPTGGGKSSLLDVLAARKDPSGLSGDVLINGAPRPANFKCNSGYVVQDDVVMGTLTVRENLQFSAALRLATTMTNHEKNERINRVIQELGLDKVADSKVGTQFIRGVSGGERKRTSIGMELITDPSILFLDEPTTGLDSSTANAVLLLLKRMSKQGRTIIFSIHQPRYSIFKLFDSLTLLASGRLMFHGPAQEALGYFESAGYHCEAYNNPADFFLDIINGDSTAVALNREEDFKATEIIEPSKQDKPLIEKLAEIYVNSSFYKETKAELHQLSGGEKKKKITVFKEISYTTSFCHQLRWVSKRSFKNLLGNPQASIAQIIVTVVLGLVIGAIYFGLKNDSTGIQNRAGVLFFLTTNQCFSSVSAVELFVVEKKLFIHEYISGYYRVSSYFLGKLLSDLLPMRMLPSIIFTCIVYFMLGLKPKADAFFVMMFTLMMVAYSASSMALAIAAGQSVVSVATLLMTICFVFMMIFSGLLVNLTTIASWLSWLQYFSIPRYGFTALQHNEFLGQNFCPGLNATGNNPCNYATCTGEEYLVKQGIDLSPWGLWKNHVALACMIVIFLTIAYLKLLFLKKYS
assay-info: BCRP MDCKII permeability assay: efflux ratio
Type: in vitro ADME
details: dog
Where a name gives a salt, the structure may show the parent alone.
measured-quantity: efflux ratio at 2 h, 1 µM

1. Cn1cnc2ccc(Nc3c(F)ccc(NS(=O)(=O)N4CC[C@@H](OC(F)F)C4)c3Cl)c(Cl)c2c1=O; 2.9

(A) Cn1cnc2ccc(Oc3c(F)ccc(NS(=O)(=O)N4CC5CC5C4)c3Cl)c(Cl)c2c1=O (stereo not shown)
(B) CO[C@@H]1CCN(S(=O)(=O)Nc2cc(F)c(F)c(Nc3ccc4ncn(C)c(=O)c4c3F)c2Cl)C1 [Example 47, trifluoroacetate]
(C) Cc1c(Nc2c(F)ccc(NS(=O)(=O)N3CC(F)C3)c2Cl)ccc2ncn(C)c(=O)c12
Enquiry: Ascending sort, efflux ratio at 2 h, 1 µM. Return the labels ranked in the requested order, please.
Return: A, C, B
(A: 0.8, C: 1.6, B: 2.5)

* * *

subject-of-test: BCRP (Homo sapiens (Human))
assay-info: BCRP MDCKII permeability assay: efflux ratio
Format: in vitro ADME
details: dog
Counter-ions that a name gives are not always drawn.
measured-quantity: efflux ratio at 2 h, 1 µM

Consider the worked cases shown below.
1. Cc1c(Nc2cc(F)cc(NS(=O)(=O)N3CC[C@@H](F)C3)c2Cl)ccc2ncn(C)c(=O)c12; 1.8
2. Cc1c(Nc2c(F)ccc(NS(=O)(=O)N3C[C@@H](F)[C@@H](F)C3)c2Cl)ccc2ncn(C)c(=O)c12; 3.5
3. Cn1cnc2ccc(Nc3c(F)ccc(NS(=O)(=O)N4CC5CC5C4)c3Cl)c(F)c2c1=O (stereo not shown) [Example 30, trifluoroacetate]; 1.2
4. Cc1c(Nc2c(F)c(F)cc(NS(=O)(=O)N3C[C@@H](F)[C@@H](F)C3)c2Cl)ccc2ncn(C)c(=O)c12; 6.8
5. Cn1cnc2ccc(Nc3c(F)ccc(NS(=O)(=O)N4CC5(CCC5)C4)c3Cl)c(F)c2c1=O [Example 159, trifluoroacetate]; 1.1

(P) Cc1c(Nc2c(F)ccc(NS(=O)(=O)N3CC[C@H](F)C3)c2Cl)ccc2ncn(C)c(=O)c12 [Example 86, trifluoroacetate]
(Q) Cn1cnc2ccc(Nc3c(F)c(F)cc(NS(=O)(=O)N4CCCC4)c3Cl)c(F)c2c1=O [Example 40, trifluoroacetate]
Enquiry: I would appreciate it if you could say which entry, P or Q , has the lower efflux ratio at 2 h, 1 µM value. I would appreciate it if you answered with the label of your choice.
Return: P
(P: 1.6, Q: 2.3)

* * *

subject-of-test: full-length FLAG-tagged B-Raf(V600E) (Homo sapiens (Human), UniProt P15056, V600E)
Sequence (P15056 whole entry V600E): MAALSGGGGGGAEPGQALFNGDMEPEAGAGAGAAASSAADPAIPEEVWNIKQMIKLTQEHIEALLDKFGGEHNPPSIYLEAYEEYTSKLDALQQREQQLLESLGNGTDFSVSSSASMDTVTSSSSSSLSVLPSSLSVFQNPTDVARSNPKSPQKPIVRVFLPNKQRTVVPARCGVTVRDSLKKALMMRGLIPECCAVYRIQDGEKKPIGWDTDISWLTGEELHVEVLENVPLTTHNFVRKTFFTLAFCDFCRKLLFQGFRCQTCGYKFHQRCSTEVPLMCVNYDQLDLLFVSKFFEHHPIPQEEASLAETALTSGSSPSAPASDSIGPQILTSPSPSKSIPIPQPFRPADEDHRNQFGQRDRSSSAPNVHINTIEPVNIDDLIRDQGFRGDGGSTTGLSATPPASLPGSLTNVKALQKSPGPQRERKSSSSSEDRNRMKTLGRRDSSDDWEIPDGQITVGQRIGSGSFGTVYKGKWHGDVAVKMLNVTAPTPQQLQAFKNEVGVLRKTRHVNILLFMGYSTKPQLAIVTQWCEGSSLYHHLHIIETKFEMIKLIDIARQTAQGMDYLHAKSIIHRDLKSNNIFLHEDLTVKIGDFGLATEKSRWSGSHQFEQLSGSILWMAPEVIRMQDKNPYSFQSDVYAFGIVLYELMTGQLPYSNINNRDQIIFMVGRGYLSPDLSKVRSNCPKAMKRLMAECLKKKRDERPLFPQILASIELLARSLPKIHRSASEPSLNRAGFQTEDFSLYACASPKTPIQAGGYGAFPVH
assay-info: BRAF V600E enzyme assay (TR-FRET competitive displacement)
Format: binding
pIC50: −log10 of the molar value.
measured-quantity: pIC50

Consider the worked cases shown below.
1) Cn1cnc2ccc(Oc3c(F)ccc(NS(=O)(=O)N4CCC(F)(F)C4)c3Cl)c(Cl)c2c1=O; 8.70
2) Cn1cnc2ccc(Oc3c(F)ccc(NS(=O)(=O)N4CC5CC4C5)c3Cl)c(Cl)c2c1=O; 8.70
3) Cn1cnc2ccc(Oc3c(F)ccc(NS(=O)(=O)N4CCC(F)(F)C4)c3Cl)c(F)c2c1=O; 9.00
4) Cc1c(Oc2c(F)ccc(NS(=O)(=O)N3CC[C@@H](F)C3)c2Cl)ccc2ncn(C)c(=O)c12; 8.10
5) Cc1c(Oc2c(F)ccc(NS(=O)(=O)N3CCCC3)c2Cl)ccc2ncn(C)c(=O)c12; 8.15

(A) CCN(C)S(=O)(=O)Nc1ccc(F)c(Oc2ccc3ncn(C)c(=O)c3c2C)c1Cl
(B) Cn1cnc2ccc(Oc3c(F)ccc(NS(=O)(=O)N4C[C@@H](F)[C@@H](F)C4)c3Cl)c(F)c2c1=O
Enquiry: So which one has the bigger pIC50 here, A or B ? I would appreciate it if you answered with the label of your choice.
Return: B

(P) Cc1c(Oc2c(F)ccc(NS(=O)(=O)N3CC[C@@H](OC(F)F)C3)c2Cl)ccc2ncn(C)c(=O)c12.O=C(O)C(F)(F)F [Example 57, trifluoroacetate]
(Q) Cn1cnc2ccc(Oc3c(F)ccc(NS(=O)(=O)N4C[C@@H](F)[C@@H](F)C4)c3Cl)c(Cl)c2c1=O
Enquiry: I would appreciate it if you could say which entry, P or Q , has the lower pIC50 value. I would appreciate it if you answered with the label of your choice.
Return: P

(I) Cn1cnc2ccc(Oc3c(F)ccc(NS(=O)(=O)N4CC[C@@H](OC(F)F)C4)c3Cl)c(Cl)c2c1=O
(II) Cn1cnc2ccc(Oc3c(F)ccc(NS(=O)(=O)N4CC[C@@H](OC(F)F)C4)c3Cl)c(F)c2c1=O
Enquiry: So which one has the bigger pIC50 here, I or II ? I would appreciate it if you answered with the label of your choice.
Return: I

This collection of values is drawn from patent US12303509B2.
